System name: Estrogen receptor (Homo sapiens, UniProt P03372)
Sequence (P03372 whole entry): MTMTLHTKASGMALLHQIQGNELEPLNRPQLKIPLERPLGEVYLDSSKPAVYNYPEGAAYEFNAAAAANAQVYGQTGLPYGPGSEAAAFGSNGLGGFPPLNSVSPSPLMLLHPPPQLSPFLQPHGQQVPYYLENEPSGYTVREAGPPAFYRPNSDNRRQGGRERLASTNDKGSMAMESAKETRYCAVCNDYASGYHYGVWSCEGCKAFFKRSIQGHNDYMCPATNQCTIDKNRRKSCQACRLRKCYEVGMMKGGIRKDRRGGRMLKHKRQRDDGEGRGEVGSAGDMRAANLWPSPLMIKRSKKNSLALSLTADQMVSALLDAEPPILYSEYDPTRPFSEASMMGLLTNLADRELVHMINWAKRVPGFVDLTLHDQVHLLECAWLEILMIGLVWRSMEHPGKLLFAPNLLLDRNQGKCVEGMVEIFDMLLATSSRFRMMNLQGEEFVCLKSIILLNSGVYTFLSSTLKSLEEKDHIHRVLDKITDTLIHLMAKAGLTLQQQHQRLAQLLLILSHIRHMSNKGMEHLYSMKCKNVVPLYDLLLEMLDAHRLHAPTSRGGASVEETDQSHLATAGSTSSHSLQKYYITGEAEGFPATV
Procedure summary: Effect on binding to ER in Ad5-wt-ER-infected HAECT1 cells by creatine kinase expression
Type: functional, cell-based
Test conditions: read-out: EC50
Measured property: EC50
I'd appreciate it if you wrote the number followed by its unit.

What value of EC50 has been recorded for this entry: CCN(c1ccccc1)S(=O)(=O)c1ccc(O)c(C)c1
2140 nM

What value of EC50 has been recorded for this entry: CCCN(c1c(C)cccc1Cl)S(=O)(=O)c1ccc(O)cc1
63 nM

What value of EC50 has been recorded for this entry: O=S(=O)(c1ccc(O)cc1)N(c1ccccc1)C1CCCCC1
534 nM

What value of EC50 has been recorded for this entry: CCCN(c1c(Cl)cccc1Cl)S(=O)(=O)c1ccc(O)c(C)c1
378 nM

What value of EC50 has been recorded for this entry: CCCN(c1ccccc1Cl)S(=O)(=O)c1ccc(O)cc1
144 nM

---

System name: Estrogen receptor (Homo sapiens, UniProt P03372)
Procedure summary: Effect on binding to ER in Ad5-wt-ER-infected HAECT1 cells by creatine kinase expression
Type: functional, cell-based
Test conditions: read-out: EC50
Measured property: pEC50
Scale explanation: pEC50 corresponds to minus log10 of a concentration expressed in moles per litre.

What value of pEC50 has been recorded for this entry: CCN(c1cccc(OC)c1)S(=O)(=O)c1ccc(O)cc1
6.08

What value of pEC50 has been recorded for this entry: CCCN(c1ccccc1Br)S(=O)(=O)c1ccc(O)cc1
6.82

What value of pEC50 has been recorded for this entry: CCCN(c1c(C)cccc1Cl)S(=O)(=O)c1ccc(O)c(C)c1
6.82

What value of pEC50 has been recorded for this entry: CCN(c1ccc(O)cc1)S(=O)(=O)c1ccc(O)cc1
5.86

What value of pEC50 has been recorded for this entry: CCCN(c1ccccc1F)S(=O)(=O)c1ccc(O)cc1
6.79

What value of pEC50 has been recorded for this entry: CC(C)N(c1ccccc1)S(=O)(=O)c1ccc(O)cc1
5.70

What value of pEC50 has been recorded for this entry: CCCN(c1ccccc1)S(=O)(=O)c1ccc(O)cc1
5.84

What value of pEC50 has been recorded for this entry: CCCN(c1c(CC)cccc1CC)S(=O)(=O)c1ccc(O)c(C)c1
6.67

What value of pEC50 has been recorded for this entry: CCCN(c1ccccc1Cl)S(=O)(=O)c1ccc(O)c(C)c1
6.19

What value of pEC50 has been recorded for this entry: CCCN(c1c(C)cccc1C)S(=O)(=O)c1ccc(O)c(C)c1
7.12

What value of pEC50 has been recorded for this entry: CCCCN(c1ccccc1)S(=O)(=O)c1ccc(O)cc1
6.15

What value of pEC50 has been recorded for this entry: CCCN(c1c(C)cccc1CC)S(=O)(=O)c1ccc(O)c(C)c1
7.92

What value of pEC50 has been recorded for this entry: CCCN(c1ccccc1C(F)(F)F)S(=O)(=O)c1ccc(O)cc1
6.61

What value of pEC50 has been recorded for this entry: C=CCN(c1ccccc1)S(=O)(=O)c1ccc(O)cc1
6.22

What value of pEC50 has been recorded for this entry: CCCN(c1ccccc1Br)S(=O)(=O)c1ccc(O)c(C)c1
6.32

What value of pEC50 has been recorded for this entry: O=S(=O)(c1ccc(O)cc1)N(Cc1ccccc1)c1ccccc1
6.62

What value of pEC50 has been recorded for this entry: CCCN(c1ccccc1C)S(=O)(=O)c1ccc(O)c(C)c1
6.03

What value of pEC50 has been recorded for this entry: CCN(c1ccccc1OC)S(=O)(=O)c1ccc(O)cc1
5.66

What value of pEC50 has been recorded for this entry: CCN(c1ccccc1Br)S(=O)(=O)c1ccc(O)cc1
6.42

What value of pEC50 has been recorded for this entry: CCN(c1ccccc1)S(=O)(=O)c1ccc(O)cc1
5.80

What value of pEC50 has been recorded for this entry: O=S(=O)(c1ccc(O)cc1)N(c1ccccc1)c1ccccc1
5.81

Provenance of the data: ChEMBL document CHEMBL1149456
